System: LG0567-F671-PDC KRAS tumor spheroid viability
procedure details: Anticancer human tumor LG0567-F671-PDC patient-derived lung adenocarcinoma cell line growth inhibition [KRAS2]
assay setup: second compound 3.16 µM; first compound 0.00316 µM; hits give low values; spheroids with HUVEC and MSC
viability, T/C by entry:

compound	readout name	observed measurement
Cn1ncnc1[C@H]1c2n[nH]c(=O)c3cc(F)cc(c23)N[C@@H]1c1ccc(F)cc1 + CC1OCC2(CCN(c3cnc(Sc4ccnc(N)c4Cl)c(N)n3)CC2)C1N	viability, T/C	19.1%

So, CCN1CCN(Cc2ccc(Nc3ncc(F)c(-c4cc(F)c5nc(C)n(C(C)C)c5c4)n3)nc2)CC1 + CNCc1ccccc1-c1csc(C(C)Nc2nc(C)nc3cc(OC)c(OC)cc23)c1 ? Its viability, T/C was 60.6%

So, CC(=O)Nc1cccc(-n2c(=O)n(C3CC3)c(=O)c3c(Nc4ccc(I)cc4F)n(C)c(=O)c(C)c32)c1 + COc1cc2nc(C)nc(NC(C)c3cc(N)cc(C(F)(F)F)c3)c2cc1OC1CCOC1 ? Its viability, T/C was 19.2%

###

System: LG0567-F671-PDC KRAS tumor spheroid viability
procedure details: Anticancer human tumor LG0567-F671-PDC cell line growth inhibition [KRAS2];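 also: drug exposure lasted seven days after spheroids formed for three days; 100% = DMSO vehicle control viability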
assay setup: second compound 1 µM; first compound 1 µM; hits give low values; spheroids with HUVEC and MSC
Hi! Just check whether viability, T/C is below 30%. Below gives true (1), equal or above gives false (0).

Examples from the recorded data:
compound	assigned class
CC(C)NCC(C(=O)N1CCN(c2ncnc3c2C(C)CC3O)CC1)c1ccc(Cl)cc1 (stereo not given) + COc1cc2nc(C)nc(NC(C)c3cc(N)cc(C(F)(F)F)c3)c2cc1OC1CCOC1	false (0)
CC(=O)OC12COC1CC(O)C1(C)C(=O)C(O)C3=C(C)C(OC(=O)C(O)C(NC(=O)OC(C)(C)C)c4ccccc4)CC(O)(C(OC(=O)c4ccccc4)C21)C3(C)C (stereo not given) + C=CC(=O)N1CCN(c2nc(OCC3CCCN3C)nc3c2CCN(c2cccc4cccc(C)c24)C3)CC1CC#N	true (1)
CC1OCC2(CCN(c3cnc(Sc4ccnc(N)c4Cl)c(N)n3)CC2)C1N (stereo not given) + C=CC(=O)N1CCN(c2nc(OCC3CCCN3C)nc3c2CCN(c2cccc4cccc(C)c24)C3)CC1CC#N	true (1)

Alright, here's another compound for you.
Input line: Decide: viability, T/C of CC1(C)CCC(CN2CCN(c3ccc(C(=O)NS(=O)(=O)c4ccc(NCC5CCOCC5)c([N+](=O)[O-])c4)c(Oc4cnc5[nH]ccc5c4)c3)CC2)=C(c2ccc(Cl)cc2)C1 + CNCc1ccccc1-c1csc(C(C)Nc2nc(C)nc3cc(OC)c(OC)cc23)c1 strictly below 30%?
Output line: false (0)

###

Tested on: LG0567-F671-PDC KRAS tumor spheroid viability
procedure details: Anticancer human tumor LG0567-F671-PDC cell line growth inhibition [KRAS2];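 also: drug exposure lasted seven days after spheroids formed for three days; 100% = DMSO vehicle control viability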
assay setup: second compound 10 µM; first compound 0.1 µM; hits give low values; spheroids with HUVEC and MSC
viability, T/C by entry:
Quick note: give the figure in %, leave out the unit.

Illustrative cases are given below, each with its answer.
compound	assayed system	unit text	observed measurement
CC1COCCN1c1cc(-c2ccnn2C)c2ccnc(-c3ccn[nH]3)c2n1 (stereo unspecified) + COc1cc2nc(C)nc(NC(C)c3cc(N)cc(C(F)(F)F)c3)c2cc1OC1CCOC1	LG0567-F671-PDC KRAS tumor spheroid viability	%	43.6
COc1cc(Nc2ncc3c(n2)-c2ccc(Cl)cc2C(c2c(F)cccc2OC)=NC3)ccc1C(=O)O + COc1cc2nc(C)nc(NC(C)c3cc(N)cc(C(F)(F)F)c3)c2cc1OC1CCOC1	LG0567-F671-PDC KRAS tumor spheroid viability	%	37.8
CCNC(=O)CC1N=C(c2ccc(Cl)cc2)c2cc(OC)ccc2-n2c(C)nnc21 (stereo unspecified) + COc1cc2nc(C)nc(NC(C)c3cc(N)cc(C(F)(F)F)c3)c2cc1OC1CCOC1	LG0567-F671-PDC KRAS tumor spheroid viability	%	59.8

So, Cn1ncnc1[C@H]1c2n[nH]c(=O)c3cc(F)cc(c23)N[C@@H]1c1ccc(F)cc1 + COc1cc2nc(C)nc(NC(C)c3cc(N)cc(C(F)(F)F)c3)c2cc1OC1CCOC1 ? Its viability, T/C was 53.6

So, CN(C)C/C=C/C(=O)Nc1cc2c(Nc3ccc(F)c(Cl)c3)ncnc2cc1O[C@H]1CCOC1 + CC1OCC2(CCN(c3cnc(Sc4ccnc(N)c4Cl)c(N)n3)CC2)C1N ? Its viability, T/C was 12.9

So, Cn1ncnc1[C@H]1c2n[nH]c(=O)c3cc(F)cc(c23)N[C@@H]1c1ccc(F)cc1 + CC1OCC2(CCN(c3cnc(Sc4ccnc(N)c4Cl)c(N)n3)CC2)C1N ? Its viability, T/C was 7.89

So, CCN1CCN(Cc2ccc(Nc3ncc(F)c(-c4cc(F)c5nc(C)n(C(C)C)c5c4)n3)nc2)CC1 + CC1OCC2(CCN(c3cnc(Sc4ccnc(N)c4Cl)c(N)n3)CC2)C1N ? Its viability, T/C was 6.13

So, CCNC(=O)CC1N=C(c2ccc(Cl)cc2)c2cc(OC)ccc2-n2c(C)nnc21 (stereo unspecified) + CNCc1ccccc1-c1csc(C(C)Nc2nc(C)nc3cc(OC)c(OC)cc23)c1 ? Its viability, T/C was 0.15

So, O=C(c1cc(Cc2n[nH]c(=O)c3ccccc23)ccc1F)N1CCN(C(=O)C2CC2)CC1 + CNCc1ccccc1-c1csc(C(C)Nc2nc(C)nc3cc(OC)c(OC)cc23)c1 ? Its viability, T/C was 0.82

So, O=C(c1cc(Cc2n[nH]c(=O)c3ccccc23)ccc1F)N1CCN(C(=O)C2CC2)CC1 + COc1cc2nc(C)nc(NC(C)c3cc(N)cc(C(F)(F)F)c3)c2cc1OC1CCOC1 ? Its viability, T/C was 63.2

So, CN(C)C/C=C/C(=O)Nc1cc2c(Nc3ccc(F)c(Cl)c3)ncnc2cc1O[C@H]1CCOC1 + CNCc1ccccc1-c1csc(C(C)Nc2nc(C)nc3cc(OC)c(OC)cc23)c1 ? Its viability, T/C was 0.66
